Target: UniProtKB P19120
Sequence (P19120 1-383): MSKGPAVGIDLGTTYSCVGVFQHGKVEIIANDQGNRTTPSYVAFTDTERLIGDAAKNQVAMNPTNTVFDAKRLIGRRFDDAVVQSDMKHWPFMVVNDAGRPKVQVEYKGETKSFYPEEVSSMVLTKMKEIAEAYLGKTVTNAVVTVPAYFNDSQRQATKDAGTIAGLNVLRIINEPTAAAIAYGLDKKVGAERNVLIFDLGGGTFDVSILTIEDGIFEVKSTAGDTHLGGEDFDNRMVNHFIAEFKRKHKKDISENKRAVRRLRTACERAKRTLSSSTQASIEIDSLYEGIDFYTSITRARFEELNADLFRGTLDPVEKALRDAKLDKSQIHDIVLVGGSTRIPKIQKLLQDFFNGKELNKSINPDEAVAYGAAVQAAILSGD
pKd: −log10 of the molar value.
quantityMeasured: pKd

INSERT INTO measurements (inputsmiles, quantitymeasured, resultvalue) VALUES
  ('CCn1c(=Cc2cccc[n+]2CC)sc(=C2Sc3ccccc3N2C)c1=O', 'pKd', '> 5.00');
